This collection of values is drawn from ChEMBL document CHEMBL4689842.

# Tested on: U2OS
# procedure-details: Incucyte cell viability with U2OS; also: filed as whole numbers so only -1 and 0 and 1 occur
# Format: toxicity, cell-based
# condition-description: human, 18 h, 10 µM, compound concentration 10 uM, replicate number 2, timepoint 18 hours
Would you mind telling me the reported Growth Rate of each entry?
Answers are plain numbers.

Solved entries:
CC1(C)CCC(C)(C)c2cc(NC(=O)c3ccc(C(=O)O)cc3)ccc21
1
FC(F)(F)c1cccc(-c2noc(-c3cc(-c4ccccc4)c(C(F)(F)F)s3)n2)c1
0
CCCCCNC(=O)NS(=O)(=O)c1cc([N+](=O)[O-])ccc1NC1CCCCC1
1
OCCn1cc(-c2cnc3nnn(Cc4ccc5ncccc5c4)c3n2)cn1
0

Would you be so kind as to report Growth Rate for each listed record?
1. Cl.O=C(O)Cc1cccc(OCCCN(Cc2cccc(C(F)(F)F)c2Cl)CC(c2ccccc2)c2ccccc2)c1
2. Cc1nc(NC(=O)N2CCC[C@H]2C(N)=O)sc1-c1ccnc(C(C)(C)C(F)(F)F)c1
3. Cn1nc(C(F)(F)F)cc1-c1cnc(N2CCc3cc(S(=O)(=O)Nc4c(F)cc(Cl)cc4F)cc(N4CCCC4=O)c32)nc1
4. CN1CCN(C(=O)C(C)(C)c2ccc(C(=O)Nc3cn4cc(-c5cc(C(C)(C)C)cc(C(C)(C)C)c5)ccc4n3)cc2)CC1
5. N#Cc1c[nH]c2c(C(=O)N3CCN(CCc4ccc(F)cc4)CC3)cccc12
6. Cc1c(C(=O)O)cc(-c2ccc(C3CCNCC3)cc2)c2ccc(-c3ccc(C(F)(F)F)cc3)cc12.Cl
7. CCC(=N\O)/C(C)=C/c1ccc(F)c(C)c1

1
1
0
1
1
1
1

Tell me reported Growth Rate for Cc1c(NC(=O)c2cc(C(N)=O)nc3cc(F)ccc23)c(C(F)(F)F)nn1Cc1ccc(C(C)(C)C)cc1 , tested with U2OS.
1
